# protocol details: Whole blood concentration of nalbuphine after the scratching observation
# Format: in vivo
# condition summary: ICR, mouse, subcutaneous, 30 mg/kg, SC at 0.5 hour, read-out: effective systemic concentration of nalbuphine (whole blood)
Counter-ions that a name gives are not always drawn.
assay endpoint: concentration at 0.5 h

Sure, the documented concentration at 0.5 h for Oc1ccc2c3c1O[C@H]1[C@@H](O)CC[C@@]4(O)[C@@H](C2)N(CC2CCC2)CC[C@]314 [nalbuphine HCl] is ~207 ng/mL
